Overview of recorded inhibition for various molecules
# MEASURED TARGET: Serine/threonine-protein kinase 10 (Homo sapiens);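 note: reported value is the mean percent inhibition of LOK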
# MEASUREMENT SETUP: at 1 µM
Provide a numeric answer, followed by its unit.

Completed entries (count: 5):
1) COc1ccc(-c2nn3ncccc3c2-c2ccnc(Nc3ccc(F)c(F)c3)n2)cc1; 23.5%
2) OCCCNc1nccc(-c2c(-c3ccc(F)cc3)nn3cc(C(F)(F)F)ccc23)n1; 8.12%
3) CN1CCC(n2cnc(-c3ccc(F)cc3)c2-c2ccnc(NCCO)n2)CC1; 8.57%
4) CN(c1ccc(NC(=O)NCCN2CCOCC2)cc1)c1ccnc(Nc2ccc(CS(C)(=O)=O)cc2)n1; 34.2%
5) COc1cc(N2CCN(C(C)C)CC2)ccc1Nc1nc(Nc2cccc(F)c2C(=O)O)c2cc[nH]c2n1; 9.11%

// switching to the query molecule
Reported inhibition, molecule "Fc1ccc(Nc2nccc(-c3c(-c4ccc(C(F)(F)F)cc4)nn4ncccc34)n2)cc1F" : ____ 0.68%

###

# MEASURED TARGET: Testis-specific serine/threonine-protein kinase 1 (Homo sapiens) (UniProt Q9BXA7);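 note: mean percent inhibition of TSSK1, from the GSK PKIS screening dataset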
# Sequence (Q9BXA7 whole entry): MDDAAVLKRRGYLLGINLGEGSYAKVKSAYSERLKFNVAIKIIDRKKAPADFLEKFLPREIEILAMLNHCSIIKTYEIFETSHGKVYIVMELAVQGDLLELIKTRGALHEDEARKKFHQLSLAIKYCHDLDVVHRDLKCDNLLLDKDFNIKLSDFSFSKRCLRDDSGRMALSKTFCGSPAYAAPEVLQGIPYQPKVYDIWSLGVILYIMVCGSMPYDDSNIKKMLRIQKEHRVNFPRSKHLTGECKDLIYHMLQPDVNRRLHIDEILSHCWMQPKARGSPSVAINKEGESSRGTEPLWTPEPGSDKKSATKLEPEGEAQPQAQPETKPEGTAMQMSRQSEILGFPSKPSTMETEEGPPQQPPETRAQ
# MEASUREMENT SETUP: at 0.1 µM
Just so you know, the groups by inhibition go like this: bin 1 = under 1%, bin 2 = from 1% up to 4%, bin 3 = 4% and over

1) CC(C)c1ccc(-c2cc(-c3c[nH]nc3-c3ccccn3)ccn2)cc1; bin 1
2) Cc1cc(O)cc(C)c1/C=C/c1cncc(C(N)=O)c1; bin 1
3) COc1ccc2ncn(-c3cc(O[C@H](C)c4ccccc4C(F)(F)F)c(C(N)=O)s3)c2c1; bin 2
4) CC1=C(C(=O)Nc2ccc3[nH]ncc3c2)C(c2ccc(F)cc2)N=C(c2ccc(C(F)(F)F)nc2)N1 (stereo not given); bin 2
5) COc1cc(N2CCN(C(C)C)CC2)ccc1Nc1nc(Nc2cccc3ncccc23)c2cc[nH]c2n1; bin 3

Please indicate the class for "Cc1cc(O)cc(C)c1/C=C/c1cncc(C(=O)OC(C)(C)C)c1" based on its inhibition. bin 2

What about "O=C1Nc2ccccc2/C1=C1\CCc2cc(O)ccc21" ? bin 2

What do we get for CC1=C(C(=O)Nc2ccc3[nH]nc(C)c3c2)C(c2ccc(C(F)(F)F)cc2)CC(=O)N1 (stereo not given) ? bin 2

What about this compound? "COC(=O)Nc1nc2cc(Oc3ccc(NC(=O)Nc4ccccc4)cc3)ccc2[nH]1" bin 2

Now consider "NS(=O)(=O)c1ccc(N/N=C2\C(=O)Nc3cccc(CCc4ccncc4)c32)cc1" . bin 2

Moving on to "COc1ccc(-c2nn3ncccc3c2-c2ccnc(Nc3ccc(F)c(F)c3)n2)cc1" bin 3

Please give the result for "Fc1cccc(COc2ccc(Nc3ncncc3C#Cc3ccccc3)cc2Cl)c1" too. bin 2

###

# System: Tyrosine-protein kinase ABL1 (Homo sapiens), P00519 [E255K]
# Sequence (P00519 whole entry E255K): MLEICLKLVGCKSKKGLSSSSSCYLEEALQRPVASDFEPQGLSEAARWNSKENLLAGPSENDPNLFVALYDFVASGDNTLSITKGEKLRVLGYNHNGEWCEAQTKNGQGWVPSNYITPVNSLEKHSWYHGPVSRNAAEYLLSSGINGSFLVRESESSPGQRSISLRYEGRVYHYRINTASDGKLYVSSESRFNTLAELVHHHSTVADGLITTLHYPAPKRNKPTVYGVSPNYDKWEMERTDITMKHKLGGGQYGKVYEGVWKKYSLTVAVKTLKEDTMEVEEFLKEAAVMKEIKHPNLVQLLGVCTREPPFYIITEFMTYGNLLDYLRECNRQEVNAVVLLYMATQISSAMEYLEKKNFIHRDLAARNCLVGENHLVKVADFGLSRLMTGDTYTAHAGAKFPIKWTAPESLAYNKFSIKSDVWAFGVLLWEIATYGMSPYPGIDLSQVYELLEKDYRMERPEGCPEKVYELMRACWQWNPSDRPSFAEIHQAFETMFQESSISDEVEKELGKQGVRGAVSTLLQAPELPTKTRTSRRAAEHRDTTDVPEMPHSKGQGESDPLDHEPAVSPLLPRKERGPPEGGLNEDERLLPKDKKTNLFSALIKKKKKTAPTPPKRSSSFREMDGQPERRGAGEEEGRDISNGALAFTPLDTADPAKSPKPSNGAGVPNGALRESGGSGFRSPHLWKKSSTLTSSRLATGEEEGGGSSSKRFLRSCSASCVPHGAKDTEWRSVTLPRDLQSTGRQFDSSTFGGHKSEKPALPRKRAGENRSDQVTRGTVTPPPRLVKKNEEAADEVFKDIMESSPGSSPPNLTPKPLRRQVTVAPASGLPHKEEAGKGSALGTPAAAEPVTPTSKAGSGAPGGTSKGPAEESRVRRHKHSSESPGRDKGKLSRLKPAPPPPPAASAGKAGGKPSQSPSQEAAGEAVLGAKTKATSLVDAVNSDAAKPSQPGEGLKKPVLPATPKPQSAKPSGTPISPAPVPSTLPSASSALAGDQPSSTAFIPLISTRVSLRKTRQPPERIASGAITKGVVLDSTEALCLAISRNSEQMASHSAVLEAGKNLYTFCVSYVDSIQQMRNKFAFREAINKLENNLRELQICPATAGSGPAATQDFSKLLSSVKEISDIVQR
# MEASUREMENT SETUP: at 1 µM
Use Condition met when the recorded inhibition is no lower than 10%; use Condition not met when it is lower.

1. CCS(=O)(=O)c1ccc(OC)c(Nc2ncc(-c3cccc(C(C)=O)c3)o2)c1; Condition met
2. CN(c1ccc(NC(=O)NCCN2CCOCC2)cc1)c1ccnc(Nc2ccc(CS(C)(=O)=O)cc2)n1; Condition met
3. COc1c(C(N)=O)cc(-c2ccc(Cl)cc2)cc1-c1ccc(S(N)(=O)=O)cc1; Condition not met
4. NS(=O)(=O)c1cccc(N/C=C2\C(=O)Nc3ccccc32)c1; Condition not met
5. O=C(Nc1n[nH]c2nnc(-c3cccnc3)cc12)C1CC1; Condition not met

State whether the measured inhibition reaches 10%, counting equality as reaching it, for "N#Cc1ccc2c(-c3ccnc(NC4CC4)n3)c(-c3ccc(F)cc3)nn2c1" Condition not met

Quick one: "COc1cc(Nc2ncc(-c3ccccc3)o2)cc(OC)c1" Condition met
